// provenance: patent US12172975B2

target: His-GST-TVMV-hRIPK1 (1-324) (Homo sapiens (Human), UniProt Q13546); experiment: RIPK1 HTRF Binding Assay; conditions: read-out: RIPK1 HTRF (IC50); FRET probe displacement, 1 h at rt
Sequence (Q13546 1-324): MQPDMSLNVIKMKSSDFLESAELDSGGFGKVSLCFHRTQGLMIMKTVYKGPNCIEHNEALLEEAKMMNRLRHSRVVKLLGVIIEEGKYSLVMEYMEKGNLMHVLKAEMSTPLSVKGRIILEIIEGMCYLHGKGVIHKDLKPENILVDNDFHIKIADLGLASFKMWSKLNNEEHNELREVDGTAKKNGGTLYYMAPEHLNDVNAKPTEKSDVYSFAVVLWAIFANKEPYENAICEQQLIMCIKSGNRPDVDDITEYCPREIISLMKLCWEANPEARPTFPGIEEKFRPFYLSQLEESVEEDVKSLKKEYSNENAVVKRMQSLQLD
Counter-ions that a name gives are not always drawn.
readoutKind: pIC50
Quick note: pIC50 values are minus log10 of concentrations in mol/L.

Specify pIC50 for CNC(=O)c1n[nH]c2cc(-c3cnc(OC)c(C(=O)NC4CCCC(NC(=O)C(C)(C)C)C4)c3)ccc12 (single isomer, unassigned) and stop.
7.68

Specify pIC50 for CCCN(CC1CC1)C(=O)C1CCCC(NC(=O)c2cc(-c3ccc4c(C(=O)NC)n[nH]c4c3)cnc2OC)C1 (stereo not drawn) and stop.
7.68

Specify pIC50 for CCN(C)C(=O)C1CCCC(NC(=O)c2cc(-c3ccc4c(C(=O)NC)n[nH]c4c3)cnc2OC)C1 (stereo not drawn) and stop.
7.92

Specify pIC50 for CNC(=O)c1n[nH]c2cc(-c3cnc(OC)c(C(=O)NCC4CCCCC4)c3)ccc12 and stop.
7.92

Specify pIC50 for [2H]C([2H])([2H])NC(=O)c1n[nH]c2cc(-c3cnc(OC([2H])([2H])[2H])c(C(=O)N[C@H](C)c4ccccc4OC(F)(F)F)c3)ccc12 and stop.
8.07

Specify pIC50 for COc1ncc(-c2ccc3c(C(=O)NC4CC4)n[nH]c3c2)cc1C(=O)N[C@H](C)c1cccc(OC(F)(F)F)c1 [Example 205, TFA] and stop.
7.70
